Test system: HEK-293T
Experiment: Multiplex assay against HEK293T;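 for Population Tubulin-Different-Phenotype (%): share of the cells with healthy nuclei that show this phenotype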
Format: toxicity, cell-based
Conditions: human, 48 h, 10 µM, compound concentration 10 uM, replicate 2
Measured Population Tubulin-Different-Phenotype (%), listed per entry for reference.
measurement-label: Population Tubulin-Different-Phenotype (%)

{"columns": ["chem-smiles", "assay-target", "measured-result"],
 "data": [
  ["CCOc1cc(C(=O)N2CCC(N3CCN(C)CC3)CC2)ccc1Nc1ncc2c(n1)N(C1CCCC1)c1ccccc1C(=O)N2C", "HEK-293T", 50],
  ["C=C1/C(=C\\C=C2/CCC[C@]3(C)[C@@H]([C@H](C)/C=C/[C@H](C)C(C)C)CC[C@@H]23)C[C@@H](O)C[C@@H]1O", "HEK-293T", 24],
  ["CN1CCN(C(=O)C(C)(C)c2ccc(C(=O)Nc3cn4cc(-c5ccncc5)ccc4n3)cc2)CC1", "HEK-293T", 87],
  ["Cl.Oc1ccc2c3c1O[C@H]1c4[nH]c5c(c4C[C@@]4(O)[C@@H](C2)N(CC2CC2)CC[C@]314)C[C@@]1(O)[C@H]2Cc3ccc(O)c4c3[C@@]1(CCN2CC1CC1)[C@H]5O4", "HEK-293T", 16],
  ["O=C(Nc1ccc(Cl)cc1)Nc1cccc(-c2cccc(N3CCCC3)n2)c1", "HEK-293T", 79],
  ["O=C(Nc1ccc(-c2ccnc(Nc3ccc(N4CCOCC4)cc3)n2)cc1)[C@@H]1CCCN1", "HEK-293T", 81],
  ["COc1cc(N2CCN(C)CC2)ccc1Nc1ncc2c(n1)N(C)c1ccccc1C(=O)N2C", "HEK-293T", 94],
  ["Cl.O=c1c2cccn2c2ccccc2n1CCCN1CCC(c2ccc(Cl)cc2)CC1", "HEK-293T", 64],
  ["Cc1cc(C)c(S(=O)(=O)N(Cc2ccc(-c3cccc(S(C)(=O)=O)c3)cc2)Cc2ccc(C(F)(F)F)o2)c(C)c1", "HEK-293T", 9],
  ["Cc1ccc(C(=O)Nc2cccc(C(F)(F)F)c2)cc1Nc1nc(-c2cccnc2)nc2c1cnn2C", "HEK-293T", 93],
  ["CCc1cccc(CC)c1NC(=O)c1nn(C)c2c1CCc1cnc(Nc3ccc(C(=O)NC4CCN(C)CC4)cc3OC(F)(F)F)nc1-2", "HEK-293T", 86],
  ["CCOc1cc2ncc(C#N)c(Nc3ccc(OCc4ccccn4)c(Cl)c3)c2cc1NC(=O)/C=C/CN(C)C", "HEK-293T", 21]
]}

* * *

Tested on: HEK-293T
Assay: Multiplex assay against HEK293T
Type: toxicity, cell-based
Details: human, 12 h, 1 µM, compound concentration 1 uM, replicate 1
Decide by Population Mitochondria Different-Phenotype (%): equal to or exceeding 60% means y, less means n.

{"columns": ["compound", "label-class"],
 "data": [
  ["CN1CCN(C(=O)C(C)(C)c2ccc(C(=O)Nc3cn4cc(-c5cc(C(C)(C)C)cc(C(C)(C)C)c5)ccc4n3)cc2)CC1", "n"],
  ["COc1cc(N2CCN(C)CC2)ccc1Nc1ncc2c(n1)N(C)c1ccccc1C(=O)N2C", "y"],
  ["O=C(Nc1ccc(-c2ccnc(Nc3ccc(N4CCOCC4)cc3)n2)cc1)[C@@H]1CCCN1", "y"],
  ["Cl.O=C(c1ccc(Nc2nccc(-c3cc4ccccc4s3)n2)cc1)N1CCC(N2CCCC2)CC1", "n"],
  ["O=C(Nc1ccc(Cl)cc1)Nc1cccc(-c2cccc(N3CCCC3)n2)c1", "y"],
  ["CN1CCC(=C2c3ccccc3CC(=O)c3sccc32)CC1.O=C(O)/C=C/C(=O)O [KETOTIFEN FUMARATE]", "y"],
  ["CCN1CCN(Cc2ccc(Nc3ncc(F)c(-c4cc(F)c5nc(C)n(C(C)C)c5c4)n3)nc2)CC1.CS(=O)(=O)O", "y"]
]}
